- tested_target: human TPH1 (Homo sapiens (Human), UniProt P17752)
- Sequence (P17752 whole entry): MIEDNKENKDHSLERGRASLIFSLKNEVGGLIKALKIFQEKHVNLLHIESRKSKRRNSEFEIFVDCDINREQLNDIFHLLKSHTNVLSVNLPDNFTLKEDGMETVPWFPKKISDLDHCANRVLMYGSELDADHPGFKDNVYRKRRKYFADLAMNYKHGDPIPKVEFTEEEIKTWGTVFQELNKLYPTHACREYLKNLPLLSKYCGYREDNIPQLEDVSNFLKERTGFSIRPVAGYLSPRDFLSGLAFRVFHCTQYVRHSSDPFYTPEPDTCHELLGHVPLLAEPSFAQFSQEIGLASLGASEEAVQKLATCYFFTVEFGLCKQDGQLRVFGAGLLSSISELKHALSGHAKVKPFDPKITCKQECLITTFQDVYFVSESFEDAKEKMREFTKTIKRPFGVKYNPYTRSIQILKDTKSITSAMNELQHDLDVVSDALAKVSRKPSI
- assay_notes: Biochemical in vitro assay using fluorescence readout (TPH1 inhibition)
- particulars: human TPH1, fluorescence readout
metric_name: pIC50
As a rule, pIC50 stands for the negative log10 of the concentration, concentration in M.

### Prompt Report pIC50 for Cc1nn2c3c(nc2s1)CCN(C(=O)COc1cccnc1Cl)C3c1cnc(N2CCOCC2)s1 (stereo not drawn) [Example 1.7.3] please.
### Response 6.47

### Prompt Report pIC50 for COC(C)(C)c1ccc(C2c3c(nc4sc(C)nn34)CCN2C(=O)COc2ccc(NS(C)(=O)=O)nc2Cl)c(F)c1 (stereo not drawn) [Example 1.81.2] please.
### Response 6.88

### Prompt Report pIC50 for Cc1nn2c3c(nc2s1)CCN(C(=O)COc1ccc(NS(C)(=O)=O)nc1Cl)C3c1ncc(Cl)cc1F (stereo not drawn) [Example 1.33.6] please.
### Response 8.22

### Prompt Report pIC50 for Cc1nn2c3c(nc2s1)CCN(C(=O)COc1ccc(N2CCOCC2)cc1Cl)C3c1ccc(Cl)cc1F (stereo not drawn) [Example 1.4.3] please.
### Response 8.40

### Prompt Report pIC50 for CCc1nc(C)ccc1OCC(=O)N1CCc2nc3sccn3c2C1c1ccc(C(F)(F)F)cc1F (stereo not drawn) [Example 6.11.1] please.
### Response 8.00

### Prompt Report pIC50 for Cc1nn2c3c(nc2s1)CCN(C(=O)COc1ccc(N2CCOCC2)nc1Cl)C3c1c(C)noc1C (stereo not drawn) [Example 1.5.2] please.
### Response 8.05

### Prompt Report pIC50 for CCn1nc(C(=O)OC)cc1OCC(=O)N1CCc2nc3sc(C)nn3c2C1c1sccc1F (stereo not drawn) [Example 1.23.12] please.
### Response 6.58

### Prompt Report pIC50 for Cc1ccc(C2c3c(nc4sc(C)nn34)CCN2C(=O)COc2ccc(-c3ncco3)nc2Cl)c(F)c1 (stereo not drawn) [Example 1.53.1] please.
### Response 8.05

### Prompt Report pIC50 for CCc1nc(NS(C)(=O)=O)ncc1OCC(=O)N1CCc2nc3sc(C)nn3c2C1c1sc(C)nc1C (stereo not drawn) [Example 1.68.9] please.
### Response 7.18

### Prompt Report pIC50 for CCc1nc(C)ccc1OCC(=O)N1CCc2nc3sccn3c2C1c1ccc(C(F)F)cc1F (stereo not drawn) [Example 6.16.2] please.
### Response 8.10

### Prompt Report pIC50 for CCc1nc(NS(C)(=O)=O)ccc1OCC(=O)N1CCc2nc3sc(CF)nn3c2C1c1ccc(Cl)cc1F (stereo not drawn) [Example 7.1.2] please.
### Response 8.10

### Prompt Report pIC50 for Cc1nn2c3c(nc2s1)CCN(C(=O)COc1ccc(C(=O)N(C)C)nc1Cl)C3c1sccc1F (stereo not drawn) [Example 1.23.6] please.
### Response 8.30

### Prompt Report pIC50 for COC(=O)c1ccc(OCC(=O)N2CCc3nc4sc(C)nn4c3C2c2ccc(Cl)cc2F)c(Cl)n1 (stereo not drawn) [Example 1.4.8] please.
### Response 7.49

### Prompt Report pIC50 for Cc1nn2c3c(nc2s1)CCN(C(=O)COc1ccc(N(C)CC(F)(F)F)nc1Cl)C3c1ccc(Cl)cc1F (stereo not drawn) [Example 1.4.38] please.
### Response 8.52

### Prompt Report pIC50 for Cc1nn2c3c(nc2s1)CCN(C(=O)COc1ccc(-c2ncco2)nc1Cl)C3c1ccc(C2CC2)cc1F (stereo not drawn) [Example 1.6.29] please.
### Response 7.77
